- test summary: in vivo
- condition: mouse, in vivo, po
# maps each entry to its LD50 at 168 h
Report the value in mg/kg with no unit label.

Reference set (5 entries):
{"molecule": "CC1(C)CC(/C=C/c2ccccc2)=CC(=N/OCCN2CCOCC2)/C1", "property measured": "LD50 at 168 h", "value observed": 1600}
{"molecule": "CN(C)CCCO/N=C1C=C(/C=C/c2cccc(Cl)c2)CC(C)(C)C/1", "property measured": "LD50 at 168 h", "value observed": 2000}
{"molecule": "CC1(C)CC(/C=C/c2ccc(Cl)cc2)=CC(=N/OCCCN2CCN(Cc3ccccc3)CC2)/C1", "property measured": "LD50 at 168 h", "value observed": 2000}
{"molecule": "COc1ccc(/C=C/C2=CC(=N/OCCCN(C)C)/CC(C)(C)C2)cc1", "property measured": "LD50 at 168 h", "value observed": 2000}
{"molecule": "CN(C)CCCO/N=C1C=C(/C=C/c2ccccc2Cl)CC(C)(C)C/1", "property measured": "LD50 at 168 h", "value observed": 2000}

I have this molecule here, CN(C)CCCO/N=C1C=C(/C=C/c2c(Cl)cccc2Cl)CC(C)(C)C/1 , and I need its recorded LD50 at 168 h. 2000

I have this molecule here, CC(CO/N=C1C=C(/C=C/c2ccccc2)CC(C)(C)C/1)CN(C)C (racemic) , and I need its recorded LD50 at 168 h. 1800

I have this molecule here, CN(C)CCCO/N=C1C=C(/C=C/c2ccccc2)CC(C)(C)C/1 , and I need its recorded LD50 at 168 h. 1300

I have this molecule here, CNC1=Nc2ccc(Cl)cc2C(c2ccccc2)=[N+]([O-])C1 [Chlordiazepoxid, reference compound] , and I need its recorded LD50 at 168 h. 620
